Quick note: these are Ki numbers for system: FABP3 (Homo sapiens, UniProt P05413)
Sequence (P05413 whole entry, species assumed): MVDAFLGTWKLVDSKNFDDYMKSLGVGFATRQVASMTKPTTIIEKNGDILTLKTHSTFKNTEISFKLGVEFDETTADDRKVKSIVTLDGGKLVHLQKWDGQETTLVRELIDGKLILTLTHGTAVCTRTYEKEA
recorded-metric: Ki (µM)

compound="O=C(Nc1cccc2ccccc12)C1C(c2ccccc2)C(C(=O)Nc2cccc3ccccc23)C1c1ccccc1 (stereo not shown) [SBFI62]" system="FABP3 (Homo sapiens, UniProt P05413)" recorded_metric=Ki reported_result=2.6
compound="O=C(O)C1C(c2ccccc2)C(C(=O)Oc2cccc3ccccc23)C1c1ccccc1 (stereo not shown) [SBFI26]" system="FABP3 (Homo sapiens, UniProt P05413)" recorded_metric=Ki reported_result=3.9
compound="O=C(O)C1C(c2ccccc2)C(C(=O)Oc2ccc3ccccc3c2)C1c1ccccc1 (stereo not shown) [SBFI50]" system="FABP3 (Homo sapiens, UniProt P05413)" recorded_metric=Ki reported_result=3.5

====

# experimental-details: Pharmacokinetics: SBFI26 levels in plasma and brain
# Assay type: in vivo
# experimental-context: brain, ip; mouse, 20 mg/kg, i.p.; read-out: Brain half-life (converted)
# Procedure: Mice were injected with SBFI26 (20 mg/kg, i.p.) and were subsequently rapidly euthanized by decapitation at the indicated time points. […] Multiple reaction monitoring (MRM) was used with the transition m/z 421 to 277 at 29 eV as the quantitation channel, while m/z 421 to 205 at 17 eV was employed as a conformation channel. SBFI26 quantification was performed using an external calibration curve.
recorded-metric: half-life

In: Given O=C(O)C1C(c2ccccc2)C(C(=O)Oc2cccc3ccccc23)C1c1ccccc1 (stereo not shown) , respond with its half-life.
Out: ~3 h

====

# system: FABP5 (Homo sapiens)
# Sequence (Q01469 whole entry, species assumed): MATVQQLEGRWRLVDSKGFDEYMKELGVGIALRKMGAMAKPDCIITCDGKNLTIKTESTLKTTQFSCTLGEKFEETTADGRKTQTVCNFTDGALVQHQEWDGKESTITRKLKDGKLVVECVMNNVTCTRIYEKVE
pKi: −log10 of the molar value.
recorded-metric: pKi

(I) O=C(Nc1cccc2ccccc12)C1C(c2ccccc2)C(C(=O)Nc2cccc3ccccc23)C1c1ccccc1 (centres unmarked) [SBFI62]
(II) O=C(O)C1C(c2ccccc2)C(C(=O)Nc2cccc3ccccc23)C1c1ccccc1 (centres unmarked) [SBFI60]
In: Lab note: record which item had the higher pKi, I or II . Write down the label attached to your selection.
Out: II
(II: 5.80, I: 5.48)

====

# system: FABP7 (Homo sapiens)
# Sequence (O15540 whole entry, species assumed): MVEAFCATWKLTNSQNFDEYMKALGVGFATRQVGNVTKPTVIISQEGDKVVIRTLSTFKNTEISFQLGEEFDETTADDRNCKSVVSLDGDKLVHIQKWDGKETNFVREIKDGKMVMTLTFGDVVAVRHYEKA
recorded-metric: Ki (nM)
Number only, in nM; omit the unit.

In: Given O=C(O)C1C(c2ccccc2)C(C(=O)Nc2cccc3ccccc23)C1c1ccccc1 (stereo not shown) [SBFI60] , report its Ki on FABP7 (Homo sapiens).
Out: 300
